# ASSAYED TARGET: human sodium glucose cotransporter 2 (Homo sapiens)
# Sequence (P31639 whole entry): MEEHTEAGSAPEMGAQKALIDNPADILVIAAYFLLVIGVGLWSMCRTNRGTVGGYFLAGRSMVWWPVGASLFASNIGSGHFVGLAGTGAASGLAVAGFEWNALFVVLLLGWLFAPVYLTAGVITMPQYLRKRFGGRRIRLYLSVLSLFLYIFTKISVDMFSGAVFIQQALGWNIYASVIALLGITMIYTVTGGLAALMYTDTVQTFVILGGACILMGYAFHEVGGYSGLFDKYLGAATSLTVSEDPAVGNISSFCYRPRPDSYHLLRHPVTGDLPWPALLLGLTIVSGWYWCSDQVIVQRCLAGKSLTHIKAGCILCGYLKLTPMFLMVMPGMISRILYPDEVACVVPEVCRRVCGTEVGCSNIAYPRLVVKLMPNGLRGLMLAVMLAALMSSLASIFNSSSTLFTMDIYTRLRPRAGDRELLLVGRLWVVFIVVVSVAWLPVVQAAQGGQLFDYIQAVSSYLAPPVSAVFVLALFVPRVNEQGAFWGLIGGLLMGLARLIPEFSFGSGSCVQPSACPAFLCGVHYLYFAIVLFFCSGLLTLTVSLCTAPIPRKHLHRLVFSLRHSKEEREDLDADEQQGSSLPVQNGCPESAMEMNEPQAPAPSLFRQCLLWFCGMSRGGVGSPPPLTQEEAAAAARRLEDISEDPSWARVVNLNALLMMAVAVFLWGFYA
# ASSAY PROTOCOL: SGLT-2 assay (14C-AMG uptake in CHO-hSGLT2 or HEK-hSGLT2 cells)
# PROTOCOL CONDITIONS: inhibition of 14C-AMG uptake; CHO-K1 or HEK293 cells stably transfected with hSGLT2; 2 hours' incubation at 37° C.
pEC50: −log10 of the molar value.
PROPERTY NAME: pEC50

Given the entry CCc1ccc(Cc2c(O[C@@H]3O[C@H](CO)[C@@H](O)[C@H](O)[C@H]3O)nn(C3CCOCC3)c2C)cc1 , report its measured pEC50. ~8.30
